Measured z-score, listed per entry.
- method: MM1S myeloma cell viability, profiling panel, resazurin fluorescence, basal, 24 h, PK04 Diversity Set (AID 1174);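 also: MM1S multiple myeloma cell line; test concentration not given here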
- condition description: higher = more signal, called active from +8 up or from −8 down
Activity calls are given as the source filed them.

Recorded results for 3 molecules are shown here.
molecule	recorded measurement
COC(=O)Cn1c(C(=O)N(C)C)cc2c1C[C@H]1CN(C(=O)c3ccccc3)[C@@](Cc3ccccc3)(C(=O)OC)[C@@H]21	0.52 (inactive)
CC(C)N1CC=CC23O[C@@H]4/C=C\CCCOC(=O)C4[C@H]2C(=O)N(C(C)CO)[C@@H]3C1=O (stereo partly specified)	0.832 (inactive)
O=C1O[C@H](c2ccccc2)[C@H](c2ccccc2)N2[C@H]1[C@@H](C(=O)Nc1nc3ccccc3s1)[C@]1(C(=O)Nc3ccccc31)[C@H]2c1ccccc1OCCO	-1.93 (inactive)

The measured z-score associated with `COC(=O)[C@@]1(Cc2ccccc2)[C@H]2c3cc(C(=O)N(C)C)n(Cc4nc5ccccc5[nH]4)c3C[C@H]2CN1C(=O)c1ccccc1` reads -0.204 (inactive)

The measured z-score associated with `COc1ccc(C#Cc2ccc3c(c2)[C@]2(C(=O)N3)[C@H](c3ccccc3OCCO)N3[C@H](c4ccccc4)[C@H](c4ccccc4)OC(=O)[C@H]3[C@@H]2C(=O)NC[C@H](O)c2ccccc2)cc1` reads -2.59 (inactive)

The measured z-score associated with `C=C(CCCC)C(=O)CC[C@H](OC(=O)c1ccccc1-c1ccccc1C(=O)O)c1cccc(OCCO)c1` reads -0.821 (inactive)

---

- method: inhibitors of hydroxyurea-induced Chk1 phosphorylation, primary screen, imaging, HeLa, phospho-Chk1 antibody, percent positive cells (AID 1186)
- condition description: hydroxyurea-induced phospho-Chk1 immunofluorescence imaging, higher = more signal
Each entry falls into one class according to its z-score; the ranges are LOW: < -0.4; MID: ≥ -0.4 and < 0.1; HIGH: ≥ 0.1

Input: Kindly state the category for this compound: `CC(C)C(=C=CC[C@H](O)c1cccc(OCCO)c1)C[C@H](O)c1ccccn1`
Output: LOW

---

- method: E. coli growth modulation, two-sided OD650, primary screen, E. coli filamentation project, strain DRC41, 24 h (AID 1093);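 also: MC1000 strain lacking acrAB efflux and sulA so SOS filamentation is blocked; test concentration not given here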
- condition description: OD650, 24 h, higher = more signal, called active from +8 up or from −8 down
Quick rule: z-score of at least -0.4 means MET, below that means NOT MET.

Field: example entries. Status: answers known.
compound	class label
Cc1ccc(S[C@]2(C(=O)NCC(C)C)CC(=O)N(C(C)C)[C@@H]2c2ccc(CO)cc2I)cc1	MET
CN(C)CCCC[C@@H]1NC(=O)[C@H]2C[C@@H](C(=O)NCCCCCCNC(=O)CS)[C@@H](c3cccc(OCCO)c3)N2C1=O	MET
C=C(C)C1CN([C@H](CO)c2ccccc2)C(=O)/C1=C\c1ccccc1 (some centres undefined)	MET

Input: Does the compound `COC(=O)[C@@]1(Cc2ccc(OC)cc2)[C@H]2c3cc(C(=O)N(C)C)n(Cc4c(CO)[nH]cc(C)c4=O)c3C[C@H]2CN1C(=O)c1ccccc1` have recorded z-score that is -0.4 or more?
Output: NOT MET

Input: Does the compound `COCCCNC(=O)[C@@]1(Cc2ccccc2I)c2ccccc2C(=O)N(Cc2ccccc2OC)[C@H]1c1ccc(CO)cc1` have recorded z-score that is -0.4 or more?
Output: MET

Input: Does the compound `COc1ccc([Si](C)(C)[C@H]2[C@H](CC(=O)N(CCO)Cc3ccccc3)O[C@@]3(C(=O)N(c4ccccc4)c4ccccc43)[C@@H]2C)cc1` have recorded z-score that is -0.4 or more?
Output: MET
